assay: Stability screening of freebase and selected salts of Formula I, 40° C. and 75% RH, weekly HPLC over 4 weeks; conditions: stored at 40° C. and 75% RH; 2 weeks
Answer each item with its documented Stability, HPLC analysis, T = 2 weeks.
One number for each entry, in %.

// known answers, use as guide
1. COc1ccc(CN2CCN(c3ccc(-c4cc(-c5cnn(C)c5)cn5ncc(C#N)c45)cn3)CC2)cn1.O=C(O)C[C@@H](O)C(=O)O [D-malic acid salt] = 97.4
2. COc1ccc(CN2CCN(c3ccc(-c4cc(-c5cnn(C)c5)cn5ncc(C#N)c45)cn3)CC2)cn1 [Freebase I] = 97.1
3. COc1ccc(CN2CCN(c3ccc(-c4cc(-c5cnn(C)c5)cn5ncc(C#N)c45)cn3)CC2)cn1.Cl [HCl salt] = 99.3

Query compound follows.
query: Note Stability, HPLC analysis, T = 2 weeks for the compound shown: COc1ccc(CN2CCN(c3ccc(-c4cc(-c5cnn(C)c5)cn5ncc(C#N)c45)cn3)CC2)cn1.O=C(O)C[C@H](O)C(=O)O [L-malic acid salt]
result: 97.4
